The entries below are paired with their reported inhibition.
target: Hexose transporter 1 (Plasmodium falciparum) (UniProt O97467); test: ST_JUDE_LEISH: Cytotoxicity at 2uM final concentration against transgenic Leishmania Mexicana promastigotes LmPfHT that are glucose transport deficient and complemented with the Plasmodium falciparum hexose transporter. Activity is measured by DNA content using SYBR green in vitro; format: functional
measured_attribute: inhibition (%)

molecule: Cc1ccc2[nH]cc(/C=C/C(=O)NC3CCC(CCN4CCc5ccc(C#N)cc5CC4)CC3)c2c1 (centres undefined)
measured_attribute: inhibition
measurement: 4.1
--
molecule: COc1cncc(/C=C/c2cncc(C(=O)NCCc3ccc(Cl)cc3Cl)c2)c1
measured_attribute: inhibition
measurement: 5.13
--
molecule: Cc1cccc(Nc2nc(N[C@@H]3CCCNC3)nc3cc[nH]c(=O)c23)c1
measured_attribute: inhibition
measurement: 85.2
--
molecule: COc1ccc(N2CCN(CCCCNC(=O)c3ccc(NC(=O)c4cc(C(F)(F)F)cc(C(F)(F)F)c4)cc3)CC2)c(OC)c1
measured_attribute: inhibition
measurement: 1.33
--
molecule: CN1CCCC(CN2CCN(Cc3cccc(-c4ccc(-c5nc6cc(F)ccc6[nH]5)cc4)c3)CC2)C1 (centres undefined)
measured_attribute: inhibition
measurement: 1.97
--
molecule: Cc1nc(-c2ccncc2)sc1C(=O)Nc1ccc(Cl)cc1C(=O)Nc1ccc(Cl)cc1
measured_attribute: inhibition
measurement: 3.01
--
molecule: O=S(=O)(NCCN1CCCC1)c1cccc(-c2ccc(CNCc3ccc(F)cc3)cc2)c1
measured_attribute: inhibition
measurement: 3.37
--
molecule: C/C=C/COc1ccc(-c2c(C)[nH]c(C)c(Cl)c2=O)cc1
measured_attribute: inhibition
measurement: 6.53
--
molecule: COc1cc(CNC[C@@H](O)[C@H](Cc2ccccc2)NC(=O)c2cc(C3CCCC3)cc(N3CCCCS3(=O)=O)c2)cc(OC)c1
measured_attribute: inhibition
measurement: 5.6

====

target: Hexose transporter 1 (Plasmodium falciparum); assay: ST_JUDE_LEISH: Cytotoxicity at 2uM final concentration against transgenic Leishmania Mexicana promastigotes LmPfHT that are glucose transport deficient and complemented with the Plasmodium falciparum hexose transporter. Activity is measured by DNA content using SYBR green in vitro; format: functional
The entries below are paired with their reported inhibition.

compound: Cc1nc(C)c(-c2ccc(Oc3cc(Cl)cc(Cl)c3)cc2)c(O)c1Br
unit_annotation: %
inhibition: 2.38
//
compound: CCOC(=O)c1nc(-c2ccccc2)[nH]c1NC(=S)NC1CCCCC1
unit_annotation: %
inhibition: -0.88
//
compound: CC(Nc1ccc2c(c1)CCC2)C(=O)Nc1cc(C(F)(F)F)ccc1N1CCOCC1 (centres undefined)
unit_annotation: %
inhibition: 16.9
//
compound: Cc1cccc(-c2ccc3c(c2)CC(NCc2cccc(-n4ccnc4)c2)C3)c1 (centres undefined)
unit_annotation: %
inhibition: 41.4
//
compound: COc1ccc(Nc2nc(NCc3cccnc3)cc(-c3ccc(OC)cc3)n2)cc1
unit_annotation: %
inhibition: 0.66
//
compound: COc1nc2c(CCN3CC[C@H](NCc4ccc5c(c4)NC(=O)CO5)[C@H](O)C3)c(Cl)cnc2cc1F
unit_annotation: %
inhibition: 7.74
//
compound: N#Cc1ccccc1C1CCN(C2CCC(Nc3cc(-c4cccnc4)ccn3)CC2)CC1 (centres undefined)
unit_annotation: %
inhibition: 1.09
//
compound: O=C(/C=C/c1ccc(Cl)c(Cl)c1)NCCCCCN1CCC(C(=O)Nc2ccc3c(c2)OCO3)CC1
unit_annotation: %
inhibition: 5.08
//
compound: Cc1ccc([N+](=O)[O-])cc1NC(=O)N(CC(O)c1ccccc1)C1CCCCC1 (centres undefined)
unit_annotation: %
inhibition: 2.61
//
compound: O=C(Cn1cc(C(F)(F)F)cc(Cl)c1=O)N1CCN(S(=O)(=O)c2ccc(Cl)cc2)CC1
unit_annotation: %
inhibition: 1.76
//
compound: CCN1CCC(N2CCC(C(=O)Nc3cccc(-c4cccc(Cl)c4)c3)CC2)CC1
unit_annotation: %
inhibition: -1.24
//
compound: O=C(/C=C/c1ccccc1Cl)Nc1ccc(Br)c(OCCN2CCN(CCN3CCOCC3)CC2)c1
unit_annotation: %
inhibition: 1.38
//
compound: O=C(NC1CCN(c2ccnc3cc(Cl)ccc23)C1)c1ccc(F)cc1 (centres undefined)
unit_annotation: %
inhibition: 2.61
//
compound: CN1CCCC(COc2cc3c(cc2Br)CCN3C(=O)Nc2ccc(-c3ccncc3)c(Cl)c2)C1 (centres undefined)
unit_annotation: %
inhibition: 5.78
//
compound: O=C(NCC1CN(Cc2ccc(N3CCCC3)o2)CCCO1)c1ccc2c(c1)OCO2 (centres undefined)
unit_annotation: %
inhibition: 0.65
//
compound: CC12CN3CC(C)(CN(C1)C3c1cc(Br)ccc1O)C2O (centres undefined)
unit_annotation: %
inhibition: -1.64
//
compound: CCCOc1ccc(C=C(CC(=O)O)c2nc3ccccc3s2)cc1OCC
unit_annotation: %
inhibition: 2.53
//
compound: COc1ccc(-c2cc(C(=O)N[C@@H](Cc3ccccc3)C(=O)NCCN3CCCCC3)ccc2O)cc1
unit_annotation: %
inhibition: 2.26
//
compound: Cc1cc(C)c(C)c(S(=O)(=O)N2CCCCC(c3ccc(F)c(F)c3)=N2)c1C
unit_annotation: %
inhibition: -0.61
//
compound: Cc1cc(N[C@@H](Cc2ccccc2)C(=O)NCCOc2ccccc2)nc(NCC2CCCCC2)n1
unit_annotation: %
inhibition: 6.54
//
compound: CCN1CCC(N(CCCCCCCCc2ccc(C(F)(F)F)cc2)C(=O)Cn2c(CCc3cccc(F)c3F)cc(=O)c3ccccc32)CC1
unit_annotation: %
inhibition: 9.52
//
compound: CC1(C)NC(N)=NC(=N)N1OCCSc1ccccc1
unit_annotation: %
inhibition: 3.7
//
compound: Cn1nccc1C(=O)NCCNCc1ccc(-c2cccc(-c3nc4ccccc4[nH]3)c2)cc1
unit_annotation: %
inhibition: -0.94
//
compound: CCN(C)C(=O)n1ncc2c3c(N)nc(N)nc3ccc21
unit_annotation: %
inhibition: 4.56
//
compound: O=C(NCCc1cccc(Cl)c1Cl)c1cnc(N2CCN(c3ccncc3)CC2)c(Cl)c1
unit_annotation: %
inhibition: 81.6
//
compound: O=C(Nc1cccc(F)c1)c1ccc(C(=O)NC2CCN(CC3CCCCC3)C2)cc1 (centres undefined)
unit_annotation: %
inhibition: 9.73
//
compound: Cc1cc(NCC(c2ccccc2)c2ccccc2)nc(NCc2ccc(C(F)(F)F)cc2)n1
unit_annotation: %
inhibition: 6.13
//
compound: Cc1nc(C(=O)N2CCCC[C@H]2CNC(=O)c2ccc(-c3ccc(N4CCCC4=O)cc3C)cc2)c(-c2ccc(F)cc2)s1
unit_annotation: %
inhibition: -0.31
//
compound: Cc1nc(N)nc(N)c1-c1cc(Cl)c(N)c(Cl)c1
unit_annotation: %
inhibition: -0.43
//
compound: CC(C)C[C@@H]1C(=O)N[C@H](C2Cc3ccccc3C2)C(=O)N1[C@@H](C(=O)O)c1ccc(F)cc1F
unit_annotation: %
inhibition: 2.13
//
compound: CCN(CC)CCNc1ccnc2[nH]c3ccc(C)cc3c12
unit_annotation: %
inhibition: 0.18
//
compound: CCN(CC)CCN(Cc1ccc(-c2ccc(C(F)(F)F)cc2)cc1)C(=O)CN1C(CCc2cccc(F)c2F)=NS(=O)(=O)c2ccccc21
unit_annotation: %
inhibition: -0.42
//
compound: O=C(N[C@@H](Cc1ccccc1)[C@H](O)CNCCC(F)(F)F)c1cccc(OCC2CC2)c1
unit_annotation: %
inhibition: -0.22
//
compound: CN1CCN(c2ccnc3ccc(NC(=O)Nc4ccc(-c5ccncc5)c5ccccc45)cc23)CC1
unit_annotation: %
inhibition: 0.39
//
compound: Cc1ccc(/C=C/C(=O)N2CCC(CCN3CCC(c4c[nH]c5ccccc45)CC3)CC2)cc1C
unit_annotation: %
inhibition: 1.19
//
compound: Cc1ccc2nc3ccccc3c(NCCN3CCN(C)CC3)c2c1
unit_annotation: %
inhibition: 50.6
//
compound: COc1cccc2c(NN=Cc3ccccc3F)ccnc12
unit_annotation: %
inhibition: 7.62
//
compound: Cc1nnsc1C(=O)Nc1cccc(-c2cccc(-c3nc4cccc(C)c4[nH]3)c2)c1
unit_annotation: %
inhibition: -1.04
//
compound: Cc1csc(-c2ncc(OC[C@@H](N)Cc3ccccc3)cc2-c2ccc3[nH]nc(C)c3c2)c1
unit_annotation: %
inhibition: 0.85

====

target: Hexose transporter 1 (Plasmodium falciparum) (UniProt O97467); assay: ST_JUDE_LEISH: Cytotoxicity at 2uM final concentration against transgenic Leishmania Mexicana promastigotes LmPfHT that are glucose transport deficient and complemented with the Plasmodium falciparum hexose transporter. Activity is measured by DNA content using SYBR green in vitro; assay type: functional
measured_attribute: inhibition (%)

cpd_smiles: C[C@H]1CN(Cc2cccc(-c3cc(CNC(=O)c4cccc(CC5CCN(C)CC5)c4)ccc3F)c2)CCN1C
unit_annotation: %
measurement: 0.27
--
cpd_smiles: O=C(CSc1nn(-c2ccccc2)c(=S)s1)c1c[nH]c2ccccc12
unit_annotation: %
measurement: 2.64
--
cpd_smiles: CNC(=O)c1ccc2nc(-c3ccc(-c4ccccc4)cc3)n(CC3CCN(CC4CCCC4)CC3)c2c1
unit_annotation: %
measurement: 0.69
--
cpd_smiles: COc1ccc2nccc(N/N=C/c3ccc([N+](=O)[O-])cc3)c2c1
unit_annotation: %
measurement: -1.77
--
cpd_smiles: Nc1ccnc(N2CCC(CCOc3cc(C(F)(F)F)nc4c(C(F)(F)F)cccc34)CC2)c1
unit_annotation: %
measurement: 43.4
--
cpd_smiles: COc1ccc2nccc([C@@H](O)CN3CCC(NC(=O)/C=C/c4cccc(NC(C)=O)c4)CC3)c2c1
unit_annotation: %
measurement: 3.46
--
cpd_smiles: CN(CCCCCNC(=O)/C=C/c1ccc(Cl)c(Cl)c1)CCc1c[nH]c2ccccc12
unit_annotation: %
measurement: 20
--
cpd_smiles: CN(C)CCOc1ccnc2ccc(NC(=O)Cc3ccc(-c4ccncc4)c4ccccc34)cc12
unit_annotation: %
measurement: -0.32
--
cpd_smiles: O=C(NCCCCN1CCC(c2ccc(C(F)(F)F)cc2C(F)(F)F)CC1)c1ccc(NC(=O)c2ccc(Cl)cc2)cc1
unit_annotation: %
measurement: 3.98
